Each entry below lists one item and its recorded pIC50 value.
test system: Plasmodium falciparum; test: microbe, parasite or virus in culture; details: NF54
Description: Antimalarial activity against CQ-sensitive Plasmodium falciparum NF54
pIC50: −log10 of the molar value.
measured parameter: pIC50

compound: C#Cc1ccc(-c2cn(CCNc3ccnc4cc(Cl)ccc34)nn2)cc1F
measured parameter: pIC50
test value: 6.85
--
compound: C=C[C@H]1CN2CC[C@H]1C[C@H]2[C@H](O)c1ccnc2ccc(OC)cc12
measured parameter: pIC50
test value: 7.66
--
compound: C#Cc1ccc(-c2cn(CCNc3ccnc4cc(Cl)ccc34)nn2)cc1
measured parameter: pIC50
test value: 6.85
